As shown below, each of these molecules has a reported combination Emax value.
test system: PANC-04-03 (Pancreatic Carcinoma); assay: combination Emax (second highest fraction inhibited in the dose matrix, 72 h); higher = more inhibition; extreme values may be limits of the assay
RECORDED_ENDPOINT: combination Emax

MOLECULE: CN(CCO)CC[C@H](CSc1ccccc1)Nc1ccc(S(=O)(=O)NC(=O)c2ccc(N3CCC([C@@H](O)c4ccccc4-c4ccc(Cl)cc4)CC3)cc2)cc1S(=O)(=O)C(F)(F)F [AZD4320] + CC(=O)O[C@H]1C(=O)[C@@]2(C)[C@H]([C@H](OC(=O)c3ccccc3)[C@]3(O)C[C@H](OC(=O)[C@H](O)[C@@H](NC(=O)c4ccccc4)c4ccccc4)C(C)=C1C3(C)C)[C@]1(OC(C)=O)CO[C@@H]1C[C@@H]2O [Paclitaxel] (first compound max 1 µM, 7x7, partner max 3 µM)
ENDPOINT_RESULT: 0.585

MOLECULE: CS(=O)(=O)CCNCc1ccc(-c2ccc3ncnc(Nc4ccc(OCc5cccc(F)c5)c(Cl)c4)c3c2)o1 [Lapatinib] + C[C@@H](Oc1cc(-c2cnn(C3CCNCC3)c2)cnc1N)c1c(Cl)ccc(F)c1Cl [Crizotinib] (first compound max 10 µM, 7x7, partner max 10 µM)
ENDPOINT_RESULT: 0.594

MOLECULE: COc1cccc(OCCCN)c1-c1cc(Nc2cnc(C#N)cn2)n[nH]1 [Prexasertib] + CCc1c2c(nc3ccc(O)cc13)-c1cc3c(c(=O)n1C2)COC(=O)[C@]3(O)CC [SN-38] (first compound max 1 µM, 7x7, partner max 0.3 µM)
ENDPOINT_RESULT: 0.625

MOLECULE: COc1nnc2ccc(N3CCC(c4ccc(OCCN5CCN(C)C(=O)[C@H]5C)cc4)CC3)nn12 [AZD5153] + Cc1c2c(nn1C)CSCc1cc(n(C)n1)CSc1cc(c3ccccc3c1)OCCCc1c(C(=O)O)n(C)c3c-2c(Cl)ccc13 [AZD5991] (first compound max 1 µM, 7x7, partner max 1 µM)
ENDPOINT_RESULT: 0.442

----------
test system: RF-48 (B-Cell Non-Hodgkin's Lymphoma); test: Bliss excess, mean over the matrix (fraction); higher = more synergy
# Bliss excess listing for each entry below
RECORDED_ENDPOINT: Bliss excess

COMPOUND: Cc1nc(-c2cn3c(n2)-c2ccc(-c4cnn(C(C)(C)C(N)=O)c4)cc2OCC3)n(C(C)C)n1 [Taselisib] + O=C(Nc1ccc2[nH]nc(-c3ccncc3)c2c1)[C@@H]1CCN(CC(=O)N2CCN(c3ccc(-c4ncccn4)cc3)CC2)C1 [SCH772984] (first compound max 10 µM, 7x7, partner max 5 µM)
SYSTEM_UNDER_TEST: RF-48 (B-Cell Non-Hodgkin's Lymphoma)
RECORDED_ENDPOINT: Bliss excess
ENDPOINT_RESULT: 0.102
--
COMPOUND: NC1(C(=O)N[C@@H](CCO)c2ccc(Cl)cc2)CCN(c2ncnc3[nH]ccc23)CC1 [Capivasertib] + Cn1cnc2c(F)c(Nc3ccc(Br)cc3Cl)c(C(=O)NOCCO)cc21 [Selumetinib] (first compound max 10 µM, 7x7, partner max 10 µM)
SYSTEM_UNDER_TEST: RF-48 (B-Cell Non-Hodgkin's Lymphoma)
RECORDED_ENDPOINT: Bliss excess
ENDPOINT_RESULT: -0.0343

----------
Documented Bliss excess across a set of compounds
tested on: OE19 (Esophageal Adenocarcinoma); experiment: Bliss excess, mean over the matrix (fraction); higher = more synergy

COMPOUND: C=CCn1c(=O)c2cnc(Nc3ccc(N4CCN(C)CC4)cc3)nc2n1-c1cccc(C(C)(C)O)n1 [AZD1775] + C1CN(CCC1(C(=O)N[C@@H](CCO)C2=CC=C(C=C2)Cl)N)C3=NC=NC4=C3C=CN4 [Capivasertib] (first compound max 3 µM, partner max 3 µM)
SYSTEM_UNDER_TEST: OE19 (Esophageal Adenocarcinoma)
Bliss excess: 0.0192
//
COMPOUND: CC1(C)CCC(CN2CCN(c3ccc(C(=O)NS(=O)(=O)c4ccc(NCC5CCOCC5)c([N+](=O)[O-])c4)c(Oc4cnc5[nH]ccc5c4)c3)CC2)=C(c2ccc(Cl)cc2)C1 [Venetoclax] + CCN(CCO)CCCOc1ccc2c(Nc3cc(CC(=O)Nc4cccc(F)c4)[nH]n3)ncnc2c1 [AZD2811] (first compound max 1 µM, 7x7, partner max 1 µM)
SYSTEM_UNDER_TEST: OE19 (Esophageal Adenocarcinoma)
Bliss excess: -0.0176
//
COMPOUND: COc1cccc(OCCCN)c1-c1cc(Nc2cnc(C#N)cn2)n[nH]1 [Prexasertib] + C=CCn1c(=O)c2cnc(Nc3ccc(N4CCN(C)CC4)cc3)nc2n1-c1cccc(C(C)(C)O)n1 [AZD1775] (first compound max 1 µM, partner max 1 µM)
SYSTEM_UNDER_TEST: OE19 (Esophageal Adenocarcinoma)
Bliss excess: 0.114
//
COMPOUND: NC1(C(=O)N[C@@H](CCO)c2ccc(Cl)cc2)CCN(c2ncnc3[nH]ccc23)CC1 [Capivasertib] + C[C@@H]1COCCN1C2=NC(=NC(=C2)C3(CC3)[S@](=N)(=O)C)C4=C5C=CNC5=NC=C4 [AZD6738] (first compound max 10 µM, 7x7, partner max 10 µM)
SYSTEM_UNDER_TEST: OE19 (Esophageal Adenocarcinoma)
Bliss excess: -0.0619
//
COMPOUND: Cc1c2c(nn1C)CSCc1cc(n(C)n1)CSc1cc(c3ccccc3c1)OCCCc1c(C(=O)O)n(C)c3c-2c(Cl)ccc13 [AZD5991] + Cc1cc2ncnn2cc1Nc1ncc2c(n1)n(C1CCOCC1)c(=O)n2C [AZD7648] (first compound max 1 µM, 7x7, partner max 10 µM)
SYSTEM_UNDER_TEST: OE19 (Esophageal Adenocarcinoma)
Bliss excess: -0.0645
//
COMPOUND: Cc1cc2ncnn2cc1Nc1ncc2c(n1)n(C1CCOCC1)c(=O)n2C [AZD7648] + C[C@@H]1COCCN1C2=NC(=NC(=C2)C3(CC3)[S@](=N)(=O)C)C4=C5C=CNC5=NC=C4 [AZD6738] (first compound max 10 µM, 7x7, partner max 10 µM)
SYSTEM_UNDER_TEST: OE19 (Esophageal Adenocarcinoma)
Bliss excess: -0.0607
//
COMPOUND: NC1(C(=O)N[C@@H](CCO)c2ccc(Cl)cc2)CCN(c2ncnc3[nH]ccc23)CC1 [Capivasertib] + Cn1cnc2c(F)c(Nc3ccc(Br)cc3Cl)c(C(=O)NOCCO)cc21 [Selumetinib] (first compound max 10 µM, 7x7, partner max 10 µM)
SYSTEM_UNDER_TEST: OE19 (Esophageal Adenocarcinoma)
Bliss excess: 0.0786
//
COMPOUND: COc1cccc(OCCCN)c1-c1cc(Nc2cnc(C#N)cn2)n[nH]1 [Prexasertib] + O=C(c1cc(Cc2n[nH]c(=O)c3ccccc23)ccc1F)N1CCN(C(=O)C2CC2)CC1 [Olaparib] (first compound max 1 µM, 7x7, partner max 10 µM)
SYSTEM_UNDER_TEST: OE19 (Esophageal Adenocarcinoma)
Bliss excess: -0.125
//
COMPOUND: CC1(C)CCC(CN2CCN(c3ccc(C(=O)NS(=O)(=O)c4ccc(NCC5CCOCC5)c([N+](=O)[O-])c4)c(Oc4cnc5[nH]ccc5c4)c3)CC2)=C(c2ccc(Cl)cc2)C1 [Venetoclax] + Cc1cc2ncnn2cc1Nc1ncc2c(n1)n(C1CCOCC1)c(=O)n2C [AZD7648] (first compound max 1 µM, 7x7, partner max 10 µM)
SYSTEM_UNDER_TEST: OE19 (Esophageal Adenocarcinoma)
Bliss excess: -0.0253
//
COMPOUND: Cc1c2c(nn1C)CSCc1cc(n(C)n1)CSc1cc(c3ccccc3c1)OCCCc1c(C(=O)O)n(C)c3c-2c(Cl)ccc13 [AZD5991] + CC1(C)CCC(CN2CCN(c3ccc(C(=O)NS(=O)(=O)c4ccc(NCC5CCOCC5)c([N+](=O)[O-])c4)c(Oc4cnc5[nH]ccc5c4)c3)CC2)=C(c2ccc(Cl)cc2)C1 [Venetoclax] (first compound max 1 µM, 7x7, partner max 1 µM)
SYSTEM_UNDER_TEST: OE19 (Esophageal Adenocarcinoma)
Bliss excess: -0.0285
//
COMPOUND: C=CCn1c(=O)c2cnc(Nc3ccc(N4CCN(C)CC4)cc3)nc2n1-c1cccc(C(C)(C)O)n1 [AZD1775] + C[C@@H]1COCCN1C2=NC(=NC(=C2)C3(CC3)[S@](=N)(=O)C)C4=C5C=CNC5=NC=C4 [AZD6738] (first compound max 1 µM, partner max 10 µM)
SYSTEM_UNDER_TEST: OE19 (Esophageal Adenocarcinoma)
Bliss excess: 0.0514
//
COMPOUND: CC(=O)c1c(C)c2cnc(Nc3ccc(N4CCNCC4)cn3)nc2n(C2CCCC2)c1=O [Palbociclib] + Cc1c2c(nn1C)CSCc1cc(n(C)n1)CSc1cc(c3ccccc3c1)OCCCc1c(C(=O)O)n(C)c3c-2c(Cl)ccc13 [AZD5991] (first compound max 10 µM, 7x7, partner max 1 µM)
SYSTEM_UNDER_TEST: OE19 (Esophageal Adenocarcinoma)
Bliss excess: 0.0014
//
COMPOUND: Cc1cc2ncnn2cc1Nc1ncc2c(n1)n(C1CCOCC1)c(=O)n2C [AZD7648] + O=C(c1cc(Cc2n[nH]c(=O)c3ccccc23)ccc1F)N1CCN(C(=O)C2CC2)CC1 [Olaparib] (first compound max 10 µM, 7x7, partner max 10 µM)
SYSTEM_UNDER_TEST: OE19 (Esophageal Adenocarcinoma)
Bliss excess: -0.0097
//
COMPOUND: CCN(CCO)CCCOc1ccc2c(Nc3cc(CC(=O)Nc4cccc(F)c4)[nH]n3)ncnc2c1 [AZD2811] + O=C(c1cc(Cc2n[nH]c(=O)c3ccccc23)ccc1F)N1CCN(C(=O)C2CC2)CC1 [Olaparib] (first compound max 1 µM, 7x7, partner max 10 µM)
SYSTEM_UNDER_TEST: OE19 (Esophageal Adenocarcinoma)
Bliss excess: 0.0454
